tested on: TK-10; experiment: NCI tumour cell line growth inhibition, 48 h
Calls of active or inactive are those of the source. Rule as the data show it: active = GI50 up to about 1.1 µM and inactive = higher.
Experimental readout: GI50

COc1cc(CNC(=O)CCCCCCCCCCSSCCCCCCCCCCC(=O)NCc2ccc(O)c(OC)c2)ccc1O
> 10 µM (inactive)
CCC1(CC)C(=O)N(C(=O)c2ccc(C)cc2)N(C(=O)c2ccc(C)cc2)C1=O
73.1 µM (inactive)

# ---- query compound ----
Query :: Data request, read-out GI50, for COC(=O)CC1C=CC(C)(OC)OO1 (stereo not drawn)
Result :: > 100 µM (inactive)

* * *

test system: Hs-578T; test: NCI tumour cell line growth inhibition, 48 h
The source made the active and inactive calls. Rule as the data show it: active = GI50 up to about 1.1 µM and inactive = higher.
Catalogue of compounds with associated GI50

Query :: Dear colleague, I am looking for the recorded GI50 of the following compound: CCC1=C(C)C(=O)N/C1=C\c1[nH]c(C)c([C@H](C)CCN)c1C
Result :: 11.9 µM (inactive)

Query :: Look up GI50 for this compound: O=C(CCn1ccnc1[N+](=O)[O-])NCCCn1ccnc1[N+](=O)[O-]
Result :: > 100 µM (inactive)
